Listed here: items and their measured IC50.
Biological target: Serine/threonine-protein kinase mTOR (Homo sapiens, UniProt P42345)
Assay: Inhibition of mTOR by LanthaScreen Eu kinase binding assay

| compound | IC50 |
| --- | --- |
| CN(C)CC#Cc1n[nH]c2ccccc12 | > 100 µM |
| Fc1cc(F)cc(C#Cc2n[nH]c3ccccc23)c1 | > 100 µM |
| N#Cc1ccc(C#Cc2n[nH]c3ccccc23)cc1 | > 100 µM |
| C(#Cc1n[nH]c2ccccc12)c1ccccn1 | > 100 µM |
| C(#CC1CC1)c1n[nH]c2ccccc12 | > 100 µM |
| Nc1ccc(C#Cc2n[nH]c3ccccc23)cc1 | 4.97 µM |
| C(#Cc1n[nH]c2ccccc12)c1ccsc1 | > 100 µM |
| C(#CC1CCCC1)c1n[nH]c2ccccc12 | > 100 µM |
| FC(F)(F)c1cc(C#Cc2n[nH]c3ccccc23)cc(C(F)(F)F)c1 | > 100 µM |
| C(#Cc1n[nH]c2ncccc12)c1cccnc1 | 5 µM |
| C(#Cc1n[nH]c2ccccc12)c1ccccc1 | > 100 µM |
| Nc1ccccc1C#Cc1n[nH]c2ccccc12 | > 100 µM |
| C(#Cc1n[nH]c2ccccc12)c1cccnc1 | > 100 µM |

---

Target: Phosphatidylinositol 4,5-bisphosphate 3-kinase catalytic subunit alpha isoform (Homo sapiens, UniProt P42336)
Sequence (P42336 whole entry, canonical isoform): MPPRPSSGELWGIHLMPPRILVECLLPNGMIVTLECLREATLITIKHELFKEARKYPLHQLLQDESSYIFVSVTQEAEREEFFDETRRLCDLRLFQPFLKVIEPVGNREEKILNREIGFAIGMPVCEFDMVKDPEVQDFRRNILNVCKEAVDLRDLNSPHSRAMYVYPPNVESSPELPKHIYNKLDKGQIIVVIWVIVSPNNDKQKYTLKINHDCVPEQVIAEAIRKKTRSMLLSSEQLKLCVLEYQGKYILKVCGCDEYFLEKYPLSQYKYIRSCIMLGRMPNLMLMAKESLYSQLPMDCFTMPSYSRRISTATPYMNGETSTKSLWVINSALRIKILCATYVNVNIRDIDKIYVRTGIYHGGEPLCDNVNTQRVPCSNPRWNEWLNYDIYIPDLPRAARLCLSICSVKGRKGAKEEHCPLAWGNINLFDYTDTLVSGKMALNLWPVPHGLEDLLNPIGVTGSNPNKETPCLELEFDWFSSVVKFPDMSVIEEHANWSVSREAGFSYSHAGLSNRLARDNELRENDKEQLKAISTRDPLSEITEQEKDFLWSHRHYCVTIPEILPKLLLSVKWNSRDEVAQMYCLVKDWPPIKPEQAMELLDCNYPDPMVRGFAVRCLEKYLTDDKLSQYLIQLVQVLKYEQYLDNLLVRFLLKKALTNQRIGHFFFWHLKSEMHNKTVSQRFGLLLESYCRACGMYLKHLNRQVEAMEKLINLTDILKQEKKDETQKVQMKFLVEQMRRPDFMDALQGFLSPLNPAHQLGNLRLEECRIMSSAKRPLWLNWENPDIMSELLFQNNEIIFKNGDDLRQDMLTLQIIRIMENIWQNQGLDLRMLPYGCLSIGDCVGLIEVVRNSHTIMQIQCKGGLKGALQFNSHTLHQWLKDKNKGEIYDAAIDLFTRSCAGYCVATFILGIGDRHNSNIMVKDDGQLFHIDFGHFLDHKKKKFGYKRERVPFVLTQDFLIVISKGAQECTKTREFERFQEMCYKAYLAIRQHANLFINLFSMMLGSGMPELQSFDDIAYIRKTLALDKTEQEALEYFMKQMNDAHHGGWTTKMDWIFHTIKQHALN
Assay: Inhibition of PI3Kalpha by LanthaScreen Eu kinase binding assay
measurement-type: IC50

| compound | measurement-type | observed |
| --- | --- | --- |
| C(#Cc1n[nH]c2ccccc12)c1ccccc1 | IC50 | > 100 µM |
| Nc1ccc(C#Cc2n[nH]c3ccccc23)cc1 | IC50 | 1.05 µM |
| CN(C)CC#Cc1n[nH]c2ccccc12 | IC50 | > 50 µM |
| C(#Cc1n[nH]c2ncccc12)c1ccncc1 | IC50 | 3.05 µM |
| C(#CC1CCCC1)c1n[nH]c2ccccc12 | IC50 | > 100 µM |
| Nc1ccccc1C#Cc1n[nH]c2ccccc12 | IC50 | > 100 µM |
